Measured values drawn from paper PMC6695355 for this set.

- Test system: E. coli ATCC 25922
- Type: cell-based, Escherichia coli
- details: ATCC 25922, 18 h
- Protocol: The minimum inhibitory concentrations (MICs) of test compounds were assessed by broth microdilution method on 96-well plates, according to the guidelines of Clinical and Laboratory Standards Institute (CLSI). […] Minimum biofilm eradication concentrations (MBECs) were determined using a previously described protocol. […] The MBEC was read after 1 h. Additionally, anti-adhesive properties of the compounds were also analyzed. […]
Where a SMILES comes first, the peptide text is derived from it.
Quick reference for MIC, E. coli ATCC 25922 among some compounds
assay.endpoint: MIC, E. coli ATCC 25922 (µg/mL)

- CC[C@H](C)[C@H](NC(=O)[C@H](C)NC(=O)[C@H](Cc1ccccc1)NC(=O)[C@H](CC(C)C)NC(=O)CN)C(=O)N[C@H](C(=O)N[C@@H](CCCCN)C(=O)N[C@@H](CCCCN)C(=O)N[C@H](C(=O)N[C@@H](C)C(=O)N[C@@H](CCC(=O)O)C(=O)N[C@@H](CO)C(=O)N[C@@H](Cc1ccccc1)C(N)=O)[C@@H](C)CC)[C@@H](C)CC [Peptide D4A] (H-GLFAIIKKIAESF-NH2): 8
- CC[C@H](C)[C@H](NC(=O)[C@H](CCCCN)NC(=O)[C@H](CCCCN)NC(=O)[C@@H](NC(=O)[C@@H](NC(=O)[C@H](CC(=O)O)NC(=O)[C@H](Cc1ccccc1)NC(=O)[C@H](C)NC(=O)CN)[C@@H](C)CC)[C@@H](C)CC)C(=O)N[C@@H](C)C(=O)N[C@@H](CCC(=O)O)C(=O)N[C@@H](CO)C(=O)N[C@@H](Cc1ccccc1)C(N)=O [Peptide L2A] (H-GAFDIIKKIAESF-NH2): 256
- CC[C@H](C)[C@H](NC(=O)[C@H](CCCCN)NC(=O)[C@H](CCCCN)NC(=O)[C@@H](NC(=O)[C@@H](NC(=O)[C@H](CC(=O)O)NC(=O)[C@H](C)NC(=O)[C@H](CC(C)C)NC(=O)CN)[C@@H](C)CC)[C@@H](C)CC)C(=O)N[C@@H](C)C(=O)N[C@@H](CCC(=O)O)C(=O)N[C@@H](CO)C(=O)N[C@@H](Cc1ccccc1)C(N)=O [Peptide F3A] (H-GLADIIKKIAESF-NH2): 128
